Target: T1, recombinant, soluble human ASGR-1 (human, UniProt P07306 62-291)
T1 construct: biotinylated in the binning assay; also called soluble huASGR-1; Soluble ASGR-1 (Amgen)
T1 sequence: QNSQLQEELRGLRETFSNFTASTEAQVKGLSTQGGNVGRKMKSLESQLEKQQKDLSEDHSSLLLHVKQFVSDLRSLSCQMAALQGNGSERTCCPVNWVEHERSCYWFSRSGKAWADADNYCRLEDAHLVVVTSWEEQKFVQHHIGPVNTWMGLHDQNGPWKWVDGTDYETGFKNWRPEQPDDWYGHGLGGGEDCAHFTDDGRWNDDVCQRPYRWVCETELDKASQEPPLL
Experiment: Octet BLI dissociation, pH 5.6 minus calcium
Parameter measured: % Change Compared to pH 7.4 + Calcium (%)
Give bare numbers, in %.

Examples with answers:
202A3 (antibody, V domains shown, hybridoma mAb) VH: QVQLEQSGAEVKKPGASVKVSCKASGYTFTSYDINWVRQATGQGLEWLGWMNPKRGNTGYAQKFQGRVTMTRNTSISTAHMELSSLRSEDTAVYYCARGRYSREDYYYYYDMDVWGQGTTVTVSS VL: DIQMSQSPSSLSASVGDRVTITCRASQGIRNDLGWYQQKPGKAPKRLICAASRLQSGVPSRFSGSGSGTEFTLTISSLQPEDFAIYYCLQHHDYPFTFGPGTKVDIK ... -23
198G3 (antibody, V domains shown, hybridoma mAb) VH: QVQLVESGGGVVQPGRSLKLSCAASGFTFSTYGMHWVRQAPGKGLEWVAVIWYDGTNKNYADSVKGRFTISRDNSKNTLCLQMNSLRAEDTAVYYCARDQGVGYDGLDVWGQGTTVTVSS VL: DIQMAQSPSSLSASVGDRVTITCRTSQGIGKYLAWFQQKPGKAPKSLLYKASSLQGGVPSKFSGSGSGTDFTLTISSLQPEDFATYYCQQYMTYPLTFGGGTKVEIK ... -4

Here is the next item to consider.
Provide only the value of recorded % Change Compared to pH 7.4 + Calcium for 60G2 (antibody, V domains shown, hybridoma mAb) VH: QVQLVESGGGVVQPGRSLRLSCAASGFTFSSYGMHWVRQAPGKGLEWVAVIWYDGSNKYYADSVKGRFTISRDNSKNTLYLQMNSLRAEDTAVYYCARRYSRSWTGGMDVWGQGTTVTVSS VL: DIVMTQTPLSLSVTPGQSASISCKSSQSLLHSEGKTYLYWYLQKPGQPPQLLIYEVSNRISGVPDRFSGSGSGTDFTLKISRVEAEDVGVYYCMQSIQLPLTFGGGTKVEIK
31
